Provenance of the data: patent US20260137698A1

Assay: General cytotoxicity on primary differentiated HepaRG cells (72 h)
Assay type: cell-based
Conditions: human, general toxicity, mean value from several measurements
property-name: CC50 at 72 h

// below: answered compounds
# compound, CC50 at 72 h
measured = [
    ("O=C(Nc1ccc(N2CCOCC2)cc1)c1cc(-c2nc(N[C@H]3CCCNC3)ncc2C(F)(F)F)c[nH]1", "500 to 2000 nM"),
    ("O=C1c2[nH]cc(-c3nc(NC4CCCNC4)ncc3C(F)(F)F)c2CCCN1c1nccs1 (centres unmarked)", "> 2000 nM"),
    ("CC1CCc2c(-c3nc(N[C@H]4CCCNC4)ncc3C(F)(F)F)c[nH]c2C(=O)N1C (some centres unmarked)", "> 2000 nM"),
    ("FC(F)(F)c1cnc(N[C@H]2CCCNC2)nc1-c1c[nH]c(-c2nnnn2C2CC2)c1", "500 to 2000 nM"),
    ("O=C(NC1CCOCC1)c1cc(-c2nc(N[C@H]3CCCNC3)ncc2C(F)(F)F)c[nH]1", "> 2000 nM"),
    ("CN(C)C(=O)c1cc(-c2nc(N[C@H]3CCCNC3)ncc2C(F)(F)F)cn1C", "> 2000 nM"),
    ("CN1CCN(C(=O)c2cc(-c3nc(N[C@H]4CCCNC4)ncc3C(F)(F)F)c[nH]2)CC1", "> 2000 nM"),
]

Would you kindly look at the next entry?
Input: If you can, please state the reported CC50 at 72 h value of `CN1Cc2c(-c3nc(N[C@H]4CCCNC4)ncc3C(F)(F)F)c[nH]c2C1=O` .
Output: < 100 nM

---

Form field: Papp at 20 h, 10 μmol (one value per entry).
Experiment: Passive membrane permeability through PAMPA artificial membrane, pH 7.4
Assay type: in vitro ADME
Settings: pH 7.4, 10 μmol, 20 hours at room temperature, mean of multiple measurements, read-out: PAMPA passive permeability Pe

Illustrative cases are given below, each with its answer.
# input-smiles, Papp at 20 h, 10 μmol
rows = [
    ("Cn1cc(-n2ccc3c(-c4nc(N[C@H]5CCCNC5)ncc4C(F)(F)F)c[nH]c3c2=O)cn1", "< 1 ×10⁻⁶ cm/s"),
    ("CN1Cc2c(-c3nc(N[C@H]4CCCNC4)ncc3C(F)(F)F)c[nH]c2C1=O", "< 1 ×10⁻⁶ cm/s"),
    ("Cn1ccc2c(-c3nc(N[C@H]4CCCNC4)ncc3C(F)(F)F)c[nH]c2c1=O", "< 1 ×10⁻⁶ cm/s"),
    ("CN1CCCc2c(-c3nc(N[C@H]4CCCNC4)ncc3C(F)(F)F)c[nH]c2C1=O", "1 to 5 ×10⁻⁶ cm/s"),
    ("CN1CCC(=O)c2c(-c3nc(N[C@H]4CCCNC4)ncc3C(F)(F)F)c[nH]c2C1=O", "< 1 ×10⁻⁶ cm/s"),
]

Input: I would be grateful if you could share the reported Papp at 20 h, 10 μmol for `Nc1ccccc1Oc1nc(N[C@H]2CCCNC2)ncc1C(F)(F)F` .
Output: 1 to 5 ×10⁻⁶ cm/s

Input: Any idea what its Papp at 20 h, 10 μmol is? The compound is `CC(C)N1CCCc2c(-c3nc(N[C@H]4CCC5(CC5)NC4)ncc3C(F)(F)F)c[nH]c2C1=O`
Output: 5 to 10 ×10⁻⁶ cm/s

Input: Given the compound `O=c1c2[nH]cc(-c3nc(N[C@H]4CCCNC4)ncc3C(F)(F)F)c2ccn1-c1nccs1` , what is its reported Papp at 20 h, 10 μmol?
Output: 1 to 5 ×10⁻⁶ cm/s

---

pIC50 for assorted compounds
Target: CDK9/Cyclin K (Homo sapiens)
Sequence (P50750 whole entry): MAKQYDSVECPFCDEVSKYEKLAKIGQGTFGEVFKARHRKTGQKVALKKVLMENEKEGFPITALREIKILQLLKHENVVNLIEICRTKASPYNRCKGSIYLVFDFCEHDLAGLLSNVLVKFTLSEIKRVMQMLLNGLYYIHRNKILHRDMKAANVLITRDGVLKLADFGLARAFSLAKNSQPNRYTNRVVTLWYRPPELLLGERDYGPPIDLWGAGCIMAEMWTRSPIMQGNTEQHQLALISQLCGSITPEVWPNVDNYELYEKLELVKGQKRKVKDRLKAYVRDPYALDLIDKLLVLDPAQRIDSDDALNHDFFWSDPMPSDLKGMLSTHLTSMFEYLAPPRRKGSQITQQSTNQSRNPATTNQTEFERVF
Sequence (O75909 whole entry partner): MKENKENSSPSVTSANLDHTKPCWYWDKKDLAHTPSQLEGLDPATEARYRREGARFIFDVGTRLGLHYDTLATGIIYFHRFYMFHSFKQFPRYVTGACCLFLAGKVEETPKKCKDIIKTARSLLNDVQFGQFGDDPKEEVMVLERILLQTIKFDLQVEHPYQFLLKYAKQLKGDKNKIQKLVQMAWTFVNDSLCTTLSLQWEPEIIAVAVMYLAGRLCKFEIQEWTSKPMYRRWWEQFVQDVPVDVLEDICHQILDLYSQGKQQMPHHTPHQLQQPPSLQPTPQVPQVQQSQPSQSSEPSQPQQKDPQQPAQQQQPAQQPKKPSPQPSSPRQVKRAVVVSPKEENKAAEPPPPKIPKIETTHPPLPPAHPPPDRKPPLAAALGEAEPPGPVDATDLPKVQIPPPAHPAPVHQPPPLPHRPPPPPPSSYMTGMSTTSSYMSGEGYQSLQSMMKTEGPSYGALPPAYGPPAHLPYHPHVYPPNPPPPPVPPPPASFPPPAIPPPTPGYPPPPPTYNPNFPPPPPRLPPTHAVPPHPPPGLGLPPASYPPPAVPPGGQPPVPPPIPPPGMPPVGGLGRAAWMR
Test: Inhibition of CDK9/Cyclin K kinase activity (ADP-Glo)
Type: biochemical
Settings: mean value from several measurements; read-out: IC50 CDK9/Cyclin K
pIC50: −log10 of the molar value.

# input-smiles, pIC50
records = [
    ("CC1(C)CC[C@H](Nc2ncc(C(F)(F)F)c(-c3c[nH]c4c3CCCN(C3CCC3)C4=O)n2)CN1", "< 6.70"),
]

Input: Observed pIC50 on CDK9/Cyclin K (Homo sapiens) for `CN(C)C(=O)c1nc(-c2nc(N[C@H]3CCCNC3)ncc2C(F)(F)F)c[nH]1` , please.
Output: < 6.70

Input: Fill in the recorded pIC50 for this compound, with CDK9/Cyclin K (Homo sapiens) as test system: `CN1CCN(C(=O)c2cc(-c3nc(N[C@H]4CCCNC4)ncc3C(F)(F)F)c[nH]2)CC1`
Output: 6.70 to 7.30

Input: Item: `O=C(c1cc(-c2nc(N[C@H]3CCCNC3)ncc2C(F)(F)F)c[nH]1)N1CCOCC1` Test system: CDK9/Cyclin K (Homo sapiens) Read-out: pIC50 Value: ?
Output: 6.70 to 7.30

Input: What value of pIC50 on CDK9/Cyclin K (Homo sapiens) does `Cn1cc(-n2ccc3c(-c4nc(N[C@H]5CCCNC5)ncc4C(F)(F)F)c[nH]c3c2=O)ccc1=O` have?
Output: < 6.70

Input: What pIC50 appears in the records for this compound with CDK9/Cyclin K (Homo sapiens)? `O=C(NC1CC1)c1cc(-c2nc(N[C@H]3CCCNC3)ncc2C(F)(F)F)c[nH]1`
Output: 7.30 to 8.30

Input: Form field - read-out: pIC50; system: CDK9/Cyclin K (Homo sapiens); submitted item: `Cn1nnnc1-c1cc(-c2nc(N[C@H]3CCCNC3)ncc2C(F)(F)F)c[nH]1`
Output: 7.30 to 8.30

Input: Param readout= pIC50; system= CDK9/Cyclin K (Homo sapiens); entry= `CC1(C)CC[C@H](Nc2ncc(C(F)(F)F)c(-c3c[nH]c4c3CCCN(C3CC3)C4=O)n2)CN1` ; returns value.
Output: < 6.70

---

// reported CC50 at 72 h for each item listed
Assay: General cytotoxicity on primary differentiated HepaRG cells (72 h)
Type: cell-based
Conditions: human, general toxicity, mean value from several measurements

Record excerpt, results attached:
# input-smiles, CC50 at 72 h
measured = [
    ("O=C1CN(c2nc(N[C@H]3CCCNC3)ncc2C(F)(F)F)c2ccccc2N1", "> 2000 nM"),
    ("O=C(c1cc(-c2nc(N[C@H]3CCCNC3)ncc2C(F)(F)F)c[nH]1)N1CCOCC1", "500 to 2000 nM"),
    ("CP(C)(=O)c1ccccc1Oc1nc(N[C@H]2CCCNC2)ncc1C(F)(F)F", "> 2000 nM"),
    ("NC(=O)c1cc(-c2nc(N[C@H]3CCCNC3)ncc2C(F)(F)F)c[nH]1", "100 to 500 nM"),
    ("CN(C(=O)c1cc(-c2nc(N[C@H]3CCCNC3)ncc2C(F)(F)F)c[nH]1)c1nccs1", "500 to 2000 nM"),
    ("O=C(Nc1ccccc1)c1cc(-c2nc(N[C@H]3CCCNC3)ncc2C(F)(F)F)c[nH]1", "500 to 2000 nM"),
    ("CS(=O)(=O)CCNC(=O)c1cc(-c2nc(N[C@H]3CCCNC3)ncc2C(F)(F)F)c[nH]1", "> 2000 nM"),
    ("Cc1ccc(Nc2nc(N[C@H]3CCCNC3)ncc2C(F)(F)F)c(P(C)(C)=O)c1", "> 2000 nM"),
    ("CN1CCC(=O)c2c(-c3nc(N[C@H]4CCCNC4)ncc3C(F)(F)F)c[nH]c2C1=O", "> 2000 nM"),
    ("Cc1noc(C)c1-n1ccc2c(-c3nc(N[C@H]4CCCNC4)ncc3C(F)(F)F)c[nH]c2c1=O", "> 2000 nM"),
]

Input: Requested field: CC50 at 72 h. Item: `CN1CCCc2c(-c3nc(N[C@H]4CCC5(CC5)NC4)ncc3C(F)(F)F)c[nH]c2C1=O`
Output: 500 to 2000 nM

---

# IC50 annotations
Biological target: CDK2/Cyclin A (Homo sapiens)
Test: Inhibition of CDK2/Cyclin A kinase activity (ADP-Glo)
Assay type: biochemical
Settings: mean of multiple measurement series; ATP 50 μM; read-out: CDK2/Cyclin A IC50
For clarity, give the value followed by its unit.

# input-smiles, study-system, IC50
rows = [
    ("CN1CCCc2c(-c3nc(N[C@H]4CCC5(CC5)NC4)ncc3C(F)(F)F)c[nH]c2C1=O", "CDK2/Cyclin A (Homo sapiens)", "4.5 µM"),
    ("Cn1cc(-n2ccc3c(-c4nc(N[C@H]5CCC6(CC6)NC5)ncc4C(F)(F)F)c[nH]c3c2=O)cn1", "CDK2/Cyclin A (Homo sapiens)", "3.39 µM"),
    ("Cn1cc(-n2ccc3c(-c4nc(N[C@H]5CCCNC5)ncc4C(F)(F)F)c[nH]c3c2=O)ccc1=O", "CDK2/Cyclin A (Homo sapiens)", "12.4 µM"),
    ("Cc1noc(C)c1-n1ccc2c(-c3nc(N[C@H]4CCCNC4)ncc3C(F)(F)F)c[nH]c2c1=O", "CDK2/Cyclin A (Homo sapiens)", "7.8 µM"),
    ("O=C1c2[nH]cc(-c3nc(N[C@H]4CCC5(CC5)NC4)ncc3C(F)(F)F)c2CCCN1C1CC1", "CDK2/Cyclin A (Homo sapiens)", "6.22 µM"),
    ("CN1CCCc2c(-c3nc(N[C@H]4CCC(C)(C)NC4)ncc3C(F)(F)F)c[nH]c2C1=O", "CDK2/Cyclin A (Homo sapiens)", "15.7 µM"),
    ("CC1(C)CC[C@H](Nc2ncc(C(F)(F)F)c(-c3c[nH]c4c3CCCN(C3CC3)C4=O)n2)CN1", "CDK2/Cyclin A (Homo sapiens)", "13.9 µM"),
    ("CC1(C)CC[C@H](Nc2ncc(C(F)(F)F)c(-c3c[nH]c4c3CCCN(C3CCC3)C4=O)n2)CN1", "CDK2/Cyclin A (Homo sapiens)", "18.6 µM"),
    ("CN1CCCc2c(-c3nc(N[C@H]4CCCNC4)ncc3C(F)(F)F)c[nH]c2C1=O", "CDK2/Cyclin A (Homo sapiens)", "5.83 µM"),
]

Input: Query (compound): `CC(C)N1CCCc2c(-c3nc(N[C@H]4CCC5(CC5)NC4)ncc3C(F)(F)F)c[nH]c2C1=O` ; field requested: IC50
Output: 14.3 µM
